Where these numbers come from: patent US20170253601A1

target: SMYD2 (Homo sapiens, UniProt Q9NRG4); construct: Full length SMYD2 (NP 064582.2) was cloned; His6 (N, cleaved yes); FLAG (N); made in house; host or cells: Sf9 insect cells; experiment: SMYD2 Biochemical Assay (3H-SAM, biotinylated peptide substrate, Flashplate); settings: IC50 values are an average of n = 1 to n = 50; read-out: SMYD2 Biochem IC50 (μM)*
Sequence (Q9NRG4 whole entry): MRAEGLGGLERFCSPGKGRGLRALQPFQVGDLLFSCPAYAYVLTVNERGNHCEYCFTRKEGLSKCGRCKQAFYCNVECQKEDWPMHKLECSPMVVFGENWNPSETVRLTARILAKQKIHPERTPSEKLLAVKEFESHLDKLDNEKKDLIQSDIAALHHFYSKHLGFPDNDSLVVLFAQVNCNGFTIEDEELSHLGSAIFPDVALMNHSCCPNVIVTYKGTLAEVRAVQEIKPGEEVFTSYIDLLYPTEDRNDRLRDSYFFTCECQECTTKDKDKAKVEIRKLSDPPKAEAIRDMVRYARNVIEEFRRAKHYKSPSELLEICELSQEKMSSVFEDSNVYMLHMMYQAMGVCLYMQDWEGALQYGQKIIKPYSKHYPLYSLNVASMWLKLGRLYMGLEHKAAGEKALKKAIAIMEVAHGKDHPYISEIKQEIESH
Quantity Kind: IC50

>>> value("C[C@H]1CN(Cc2ccc3c(c2)OCCN3C)C[C@H]1NC(=O)c1cc(C2CC2)on1 (racemic)")
"6.08 µM"
>>> value("C[C@@H]1CN(c2ccccn2)C[C@H]1NC(=O)c1cc(C2CC2)on1 (racemic)")
"> 50 µM"
>>> value("C[C@@H]1CN(C2CCS(=O)(=O)CC2)C[C@@H]1NC(=O)c1cc(C2CC2)on1 (racemic)")
"19.8 µM"
>>> value("C[C@H]1CN(Cc2c[nH]c3cc(Cl)ccc23)C[C@H]1NC(=O)c1cc(C2CC2)on1 (racemic)")
"9.34 µM"
>>> value("CC(C)C[C@H]1CN(C)C[C@@H]1NC(=O)c1cc(C2CC2)on1 (racemic)")
"39.1 µM"
>>> value("COc1ccc(CN2C[C@@H](C)[C@H](NC(=O)c3cc(C4CC4)on3)C2)cc1 (racemic)")
"45.6 µM"
>>> value("CNC(=O)CN1C[C@H](C)[C@H](NC(=O)c2cc(C3CC3)on2)C1 (racemic)")
"> 50 µM"
